src = patent US20110086026A1

Target: T1, Cynomolgus IL-13Rα1 expressed in transfected Ba/F3 cells (Cynomolgus, UniProt A0A7N9D0M5 20-425)
T1 construct: Stably transfected murine Ba/F3 cells
T1 sequence: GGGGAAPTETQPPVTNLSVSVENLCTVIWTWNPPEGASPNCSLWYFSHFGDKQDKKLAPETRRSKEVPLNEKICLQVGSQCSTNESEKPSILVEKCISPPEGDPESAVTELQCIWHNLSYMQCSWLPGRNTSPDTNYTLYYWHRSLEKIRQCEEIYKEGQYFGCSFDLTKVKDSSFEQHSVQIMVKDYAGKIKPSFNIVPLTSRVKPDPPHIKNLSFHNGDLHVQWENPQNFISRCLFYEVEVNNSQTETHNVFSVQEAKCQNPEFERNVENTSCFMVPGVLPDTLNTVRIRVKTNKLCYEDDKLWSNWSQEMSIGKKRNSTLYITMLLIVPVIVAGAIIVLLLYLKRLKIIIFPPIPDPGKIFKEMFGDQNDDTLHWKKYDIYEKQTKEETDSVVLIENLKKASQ
Test: FACS on Ba/F3 cells transfected with Cynomolgus IL-13Rα1, 10 µg/ml
property: MFI Ba/F3_Cyno_IL-13Rα1 (MFI)
Give the quantity in MFI, number only.

Give its MFI Ba/F3_Cyno_IL-13Rα1 value. Item: HuMab LC5002-002 (antibody, human IgG1, V domains shown, Human IgG1 kappa from a HuMab mouse hybridoma; Only the variable domains are tied to this antibody; also called hu-MAB<h-IL-13R alpha>LC.5002-002 (DSM ACC2709)) VH: EVQLLESGGGLVQPGGSLRLSCAASGFTFNIYAMNWVRQAPGKGLEWVSVISGRGITTYYADSVKGRFTISRDNSKNTLYLQMNSLRADDTAVYYCAKGSSSWTDFDYWGQGTLVTVSS VL: DIQMTQSPSSLSASVGDRVTITCRASQGISRWVAWYQQKPEKAPKSLIYAASSLQSGVPSRFSGSGSGTDFTLTISSLQPEDFATYYCQQYNSYPWTFGQGTKVEIK
83.7
